- Test Target: caspase-3 (Homo sapiens (Human), UniProt P42574)
- Sequence (P42574 29-175 limits assumed): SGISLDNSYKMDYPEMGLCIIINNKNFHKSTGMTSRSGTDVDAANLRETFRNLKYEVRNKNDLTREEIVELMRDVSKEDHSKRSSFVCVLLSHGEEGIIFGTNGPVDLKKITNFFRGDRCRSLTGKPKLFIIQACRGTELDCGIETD
- Sequence (P42574 176-277 limits assumed): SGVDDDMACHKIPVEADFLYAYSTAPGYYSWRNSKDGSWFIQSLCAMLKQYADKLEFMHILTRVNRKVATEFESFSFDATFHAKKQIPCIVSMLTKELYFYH
Quantity Kind: IC50

Problem: Fill blank: measured IC50 of the molecule CC(C)C[C@H](NC(=O)OCc1ccccc1)C(=O)N[C@@H](CC1CCNC1=O)C(O)S(=O)(=O)[O-].[Na+] (stereo partly shown) [GC-376, reference compound] is ____.
Solution: > 20 µM

====

- Test Target: SARS-CoV-2 M^pro (Severe acute respiratory syndrome coronavirus 2 (2019-nCoV) (SARS-CoV-2), UniProt P0DTD1)
- Protocol Notes: biochemical
- Condition Description: read-out: SARS-COV-2 main protease enzymatic inhibition IC50
Exercise: for every item that follows, state its recorded log10 of IC50.
// units: µM (pre-log); metric: IC50; scale: log10

Compound | Quantity Kind | Result Number
C[C@H](NC(=O)C(c1cccnc1)N(C(=O)c1ccco1)c1ccc(OC(C)(C)C)cc1)c1ccccc1 (stereo partly drawn) | log10 of IC50 | 1.34
O=C(NC1CCCC1)C(c1cccnc1)N(C(=O)c1c[nH]cn1)c1ccc(-c2ccccc2)cc1 (stereo not drawn) | log10 of IC50 | 0.86
CC(C)(C)NC(=O)C(c1cnccn1)N(C(=O)c1ccco1)c1ccc(C(C)(C)C)cc1 (stereo not drawn) | log10 of IC50 | 0.69
O=C(NCCCc1ccccc1)C(c1cccnc1)N(C(=O)c1ccco1)c1ccc(-c2ccccc2)cc1 (stereo not drawn) | log10 of IC50 | 0.03
C[C@H](NC(=O)C(c1cccnc1)N(C(=O)c1ccco1)c1ccc(C(C)(C)C)cc1)c1ccccc1 (stereo partly drawn) | log10 of IC50 | 0.76

Would you kindly look at the next entry?
Problem: Which log10 of IC50 value belongs to C[C@H](NC(=O)C(c1cccnc1)N(C(=O)c1ccco1)c1ccc(Cc2ccccc2)cc1)c1ccccc1 (stereo partly drawn) ?
Solution: 1.55
